- system: T1, GST-PSD95 fusion protein (PDZ domains 1-3) (human, UniProt P31016 56-395 (rat entry))
- T1 construct: also called human post-synaptic density protein 95; not shown: glutathione S-transferase encoded by vector pGEX-3X (Pharmacia)
- T1 sequence (P31016 other isoform, or with tags, fused parts or gaps): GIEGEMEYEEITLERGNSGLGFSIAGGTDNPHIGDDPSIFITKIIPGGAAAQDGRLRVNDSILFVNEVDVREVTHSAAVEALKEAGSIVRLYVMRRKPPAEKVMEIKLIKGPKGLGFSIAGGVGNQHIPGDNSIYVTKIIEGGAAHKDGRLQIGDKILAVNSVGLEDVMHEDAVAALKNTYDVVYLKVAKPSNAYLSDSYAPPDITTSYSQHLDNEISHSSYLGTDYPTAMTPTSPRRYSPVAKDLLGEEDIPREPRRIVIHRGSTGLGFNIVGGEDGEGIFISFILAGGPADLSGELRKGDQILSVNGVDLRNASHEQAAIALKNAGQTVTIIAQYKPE
- experiment description: G assay: biotinylated peptide on plate-bound GST-PDZ fusion, streptavidin-HRP, OD 450 nm
Ends that are not written are not given here. * marks the point of attachment. Biotin = O=C1N[C@H]2[C@H](CS[C@H]2CCCCC(=O)*)N1
metric name: binding result

{"binder": "Biotin-VTSPNKHLGLVTPHKTELV [CD83 C-terminal peptide AA47L, biotinylated]", "result": "binds"}
{"binder": "Biotin-TREDIYVNYPTFSRRPKTRV [DNAM-1 C-terminal peptide AA22L, biotinylated]", "result": "binds"}
{"binder": "Biotin-KKGTYLTDETHREVKFTSL [CD46 (Form 1) C-terminal peptide AA10L, biotinylated]", "result": "binds"}
{"binder": "Biotin-TTNNNPNSAVNIKKIFTDV [KV1.3 C-terminal peptide AA33L, biotinylated]", "result": "binds"}

Origin of values: patent US20050037969A1
